# Experimental target: HDAC2 (Homo sapiens, UniProt Q92769)
# Construct: purchased Reaction Biology Corporation (assay run by the CRO)
# Sequence (Q92769 whole entry): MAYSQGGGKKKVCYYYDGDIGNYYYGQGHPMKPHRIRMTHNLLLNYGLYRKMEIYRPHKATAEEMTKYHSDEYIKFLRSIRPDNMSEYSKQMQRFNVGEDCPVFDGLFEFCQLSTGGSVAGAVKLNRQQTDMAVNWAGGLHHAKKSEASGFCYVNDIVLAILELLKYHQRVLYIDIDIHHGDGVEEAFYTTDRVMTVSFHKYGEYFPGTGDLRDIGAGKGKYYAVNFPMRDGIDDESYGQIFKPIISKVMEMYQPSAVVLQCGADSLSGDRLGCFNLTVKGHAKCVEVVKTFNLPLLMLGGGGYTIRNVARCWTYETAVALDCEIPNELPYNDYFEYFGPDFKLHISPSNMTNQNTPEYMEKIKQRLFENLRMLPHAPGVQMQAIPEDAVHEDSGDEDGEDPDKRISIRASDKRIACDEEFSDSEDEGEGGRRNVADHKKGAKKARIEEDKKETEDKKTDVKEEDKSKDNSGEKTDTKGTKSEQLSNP
# Assay text: HDAC2 inhibition, full IC50 measurement (Reaction Biology; fluorogenic p53 peptide RHKK(Ac)AMC)
# Assay type: biochemical
# Study conditions: Conc. 3.70E-07 M, t2
# Protocol: The assay was performed using 50 μM fluorogenic peptide from p53 residues 379-382 [RHKK(Ac)AMC] in a base reaction buffer of 50 mM Tris-HCl at pH 8.0, 137 mM NaCl, 2.7 mM KCl, 1 mM MgCl2, and freshly added 1 mg/ml BSA and 1% DMSO. […] Peptide concentrations were calculated based on mass of lyophilized peptide and its molecular weight. […]
Peptide text beside a SMILES is read from it.
Recorded metric: HDAC2 activity raw data (signal)
Reply briefly: the number, and no unit.

Example cases with answers are listed next.
Compound	Experimental target	Recorded metric	Value observed
CC(C)C[C@H]1NC(=O)[C@H](Cc2c[nH]c3ccccc23)NC(=O)[C@H](CCCCCS)NC(=O)[C@@H](Cc2ccc(O)cc2)NC(=O)[C@@H](C(C)C)NC(=O)[C@H](Cc2c[nH]cn2)NC(=O)CNC(=O)CNC(=O)[C@@H](CO)NC1=O [des2.2.0, SHA-Trp-dLeu-dSer-Gly-Gly-His-dVal-dTyr] (HELM PEPTIDE1{G.G.H.[dV].[dY].[O=C([C@H](CCCCCS)N[*:1])[*:2]].W.[dL].[dS]}$PEPTIDE1,PEPTIDE1,1:R1-9:R2$$$V2.0)	HDAC2 (Homo sapiens, UniProt Q92769)	HDAC2 activity raw data (signal)	1061380
CCCC[C@H]1NC(=O)[C@H](Cc2ccccc2)NC(=O)[C@H](CCCCCS)NC(=O)[C@@H](CCCNC(=N)N)NC(=O)[C@H](C)NC(=O)[C@@H](CO)NC(=O)[C@@H](C)NC(=O)[C@H](CCCCN)NC1=O [des4.3.1.3, SHA-Phe-dNle-Lys-dAla-dSer-Ala-dArg] (HELM PEPTIDE1{A.[dR].[O=C([C@H](CCCCCS)N[*:1])[*:2]].F.[CCCC[C@@H](N[*:1])C(=O)[*:2]].K.[dA].[dS]}$PEPTIDE1,PEPTIDE1,1:R1-8:R2$$$V2.0)	HDAC2 (Homo sapiens, UniProt Q92769)	HDAC2 activity raw data (signal)	1396903
N=C(N)NCCC[C@@H]1NC(=O)[C@H](Cc2c[nH]c3ccccc23)NC(=O)[C@H](CC(=O)O)NC(=O)[C@@H](CO)NC(=O)[C@H](Cc2c[nH]c3ccccc23)NC(=O)[C@H](CCCCCS)NC(=O)[C@H](CCC(N)=O)NC1=O [des4.1.0, SHA-Trp-dSer-Asp-Trp-Arg-Gln] (HELM PEPTIDE1{D.W.R.Q.[O=C([C@H](CCCCCS)N[*:1])[*:2]].W.[dS]}$PEPTIDE1,PEPTIDE1,1:R1-7:R2$$$V2.0)	HDAC2 (Homo sapiens, UniProt Q92769)	HDAC2 activity raw data (signal)	182542

Q. Fill in HDAC2 activity raw data (signal) for record CSCC[C@H]1NC(=O)[C@@H](CO)NC(=O)[C@H](CC(N)=O)NC(=O)[C@H](CC(=O)O)NC(=O)[C@@H]([C@H](C)O)NC(=O)[C@H](Cc2c[nH]c3ccccc23)NC(=O)[C@H](CCCCCS)NC(=O)[C@H](CCCCN)NC(=O)[C@@H](CC(=O)O)NC1=O [des2.1.1, SHA-Trp-dThr-Asp-Asn-dSer-dMet-dAsp-Lys] (HELM PEPTIDE1{D.N.[dS].[dM].[dD].K.[O=C([C@H](CCCCCS)N[*:1])[*:2]].W.[dT]}$PEPTIDE1,PEPTIDE1,1:R1-9:R2$$$V2.0)
A. 84596

----------
# Experimental target: HDAC3 (Homo sapiens)
# Construct: purchased Reaction Biology Corporation (assay run by the CRO)
# Sequence (O15379 whole entry): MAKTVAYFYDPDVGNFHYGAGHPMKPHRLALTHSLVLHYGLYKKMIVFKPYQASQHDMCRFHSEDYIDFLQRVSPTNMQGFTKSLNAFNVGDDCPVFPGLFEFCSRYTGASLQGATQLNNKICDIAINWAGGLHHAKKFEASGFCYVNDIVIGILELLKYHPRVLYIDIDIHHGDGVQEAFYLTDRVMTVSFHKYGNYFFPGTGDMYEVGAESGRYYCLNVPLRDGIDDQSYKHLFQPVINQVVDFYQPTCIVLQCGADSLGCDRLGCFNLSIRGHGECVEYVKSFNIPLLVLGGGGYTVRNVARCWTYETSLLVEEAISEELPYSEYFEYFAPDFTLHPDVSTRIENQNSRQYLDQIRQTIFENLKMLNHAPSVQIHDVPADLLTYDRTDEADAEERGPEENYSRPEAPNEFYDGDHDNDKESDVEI
# Sequence (Q9Y618 395-489 partner limits assumed): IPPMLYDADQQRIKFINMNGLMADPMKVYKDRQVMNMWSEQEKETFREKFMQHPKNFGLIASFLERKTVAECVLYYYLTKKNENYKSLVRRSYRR
# Assay text: HDAC3 inhibition, full IC50 measurement (Reaction Biology; fluorogenic p53 peptide RHKK(Ac)AMC)
# Assay type: biochemical
# Study conditions: Conc. 3.33E-06 M, t2
Peptide text beside a SMILES is read from it.
Recorded metric: HDAC3 activity raw data (signal)

Q. Tell me measured HDAC3 activity raw data (signal) for C[C@H](O)[C@H]1NC(=O)[C@H](Cc2c[nH]c3ccccc23)NC(=O)[C@H](CCCCCS)NC(=O)[C@H](CCCCN)NC(=O)[C@@H](CC(=O)O)NC(=O)[C@@H](CCCCN)NC(=O)[C@@H](CO)NC(=O)[C@H](CC(N)=O)NC(=O)[C@H](CC(=O)O)NC1=O [des2.1.0, SHA-Trp-dThr-Asp-Asn-dSer-dLys-dAsp-Lys] (HELM PEPTIDE1{D.N.[dS].[dK].[dD].K.[O=C([C@H](CCCCCS)N[*:1])[*:2]].W.[dT]}$PEPTIDE1,PEPTIDE1,1:R1-9:R2$$$V2.0) please.
A. 35981

----------
# Experimental target: HDAC3 (Homo sapiens)
# Construct: purchased Reaction Biology Corporation (assay run by the CRO)
# Assay text: HDAC3 inhibition, full IC50 measurement (Reaction Biology; fluorogenic p53 peptide RHKK(Ac)AMC)
# Format: biochemical
# Study conditions: Conc. 1.23E-07 M, t1
Peptide text beside a SMILES is read from it.
HDAC3 activity raw data (signal) values by entry
API note: the answer field is a bare number with no unit suffix.

Compound	Value observed
CSCC[C@H]1NC(=O)[C@@H](CO)NC(=O)[C@H](CC(N)=O)NC(=O)[C@H](CC(=O)O)NC(=O)[C@@H]([C@H](C)O)NC(=O)[C@H](Cc2c[nH]c3ccccc23)NC(=O)[C@H](CCCCCS)NC(=O)[C@H](CCCCN)NC(=O)[C@@H](CC(=O)O)NC1=O [des2.1.1, SHA-Trp-dThr-Asp-Asn-dSer-dMet-dAsp-Lys] (HELM PEPTIDE1{D.N.[dS].[dM].[dD].K.[O=C([C@H](CCCCCS)N[*:1])[*:2]].W.[dT]}$PEPTIDE1,PEPTIDE1,1:R1-9:R2$$$V2.0)	246556

Now consider the entry below.
Q. Look up and report measured HDAC3 activity raw data (signal) for this entry: CCCC[C@H]1NC(=O)[C@H](Cc2ccccc2)NC(=O)[C@H](CCCCCS)NC(=O)[C@@H](CCCNC(=N)N)NC(=O)[C@H](CC(=O)O)NC(=O)[C@@H](CO)NC(=O)[C@@H](C)NC(=O)[C@H](CCCCN)NC1=O [des4.3.1, SHA-Phe-dNle-Lys-dAla-dSer-Asp-dArg] (HELM PEPTIDE1{D.[dR].[O=C([C@H](CCCCCS)N[*:1])[*:2]].F.[CCCC[C@@H](N[*:1])C(=O)[*:2]].K.[dA].[dS]}$PEPTIDE1,PEPTIDE1,1:R1-8:R2$$$V2.0)
A. 1045370

----------
# Experimental target: HDAC2 (Homo sapiens, UniProt Q92769)
# Construct: purchased Reaction Biology Corporation (assay run by the CRO)
# Assay text: HDAC2 inhibition, full IC50 measurement (Reaction Biology; fluorogenic p53 peptide RHKK(Ac)AMC)
# Format: biochemical
# Study conditions: Conc. 1.00E-05 M, t2
Peptide text beside a SMILES is read from it.
Recorded metric: HDAC2 activity raw data (signal)

Record excerpt, results attached:
Compound	HDAC2 activity raw data (signal)
N=C(N)NCCC[C@H]1NC(=O)[C@@H]2CCCN2C(=O)[C@H](CO)NC(=O)[C@@H](Cc2c[nH]cn2)NC(=O)[C@H](CCCCCS)NC(=O)[C@H](CCCCN)NC(=O)[C@H](Cc2ccc(O)cc2)NC(=O)[C@H]2CCCN2C(=O)[C@@H](CCC(N)=O)NC1=O [des3.1.0, SHA-dHis-Ser-Pro-dArg-dGln-dPro-Tyr-Lys] (HELM PEPTIDE1{K.[O=C([C@H](CCCCCS)N[*:1])[*:2]].[dH].S.P.[dR].[dQ].[dP].Y}$PEPTIDE1,PEPTIDE1,1:R1-9:R2$$$V2.0)	72667
CC(C)[C@@H]1NC(=O)[C@H](CCCNC(=N)N)NC(=O)[C@@H](CC(=O)O)NC(=O)[C@H](CO)NC(=O)[C@@H](CO)NC(=O)[C@@H](CCC(=O)O)NC(=O)[C@H](Cc2ccc(O)cc2)NC(=O)[C@H](CCCCCS)NC1=O [des4.2.0, SHA-Tyr-dGlu-dSer-Ser-dAsp-Arg-Val] (HELM PEPTIDE1{R.V.[O=C([C@H](CCCCCS)N[*:1])[*:2]].Y.[dE].[dS].S.[dD]}$PEPTIDE1,PEPTIDE1,1:R1-8:R2$$$V2.0)	38836
NCCCC[C@@H]1NC(=O)[C@@H]2CCCN2C(=O)[C@H](CC(N)=O)NC(=O)[C@H](CCCCCS)NC(=O)CNC(=O)[C@H](Cc2c[nH]c3ccccc23)NC(=O)[C@@H](CCCCN)NC(=O)[C@H](CCC(N)=O)NC1=O [des1.1.0, SHA-Asn-Pro-Lys-Gln-dLys-Trp-Gly] (HELM PEPTIDE1{G.[O=C([C@H](CCCCCS)N[*:1])[*:2]].N.P.K.Q.[dK].W}$PEPTIDE1,PEPTIDE1,1:R1-8:R2$$$V2.0)	32005

Q. Given the compound C[C@H](O)[C@H]1NC(=O)[C@H](Cc2c[nH]c3ccccc23)NC(=O)[C@H](CCCCCS)NC(=O)[C@H](CCCCN)NC(=O)[C@@H](CC(=O)O)NC(=O)[C@@H](CCCCN)NC(=O)[C@@H](CO)NC(=O)[C@H](CC(N)=O)NC(=O)[C@H](CC(=O)O)NC1=O [des2.1.0, SHA-Trp-dThr-Asp-Asn-dSer-dLys-dAsp-Lys] (HELM PEPTIDE1{D.N.[dS].[dK].[dD].K.[O=C([C@H](CCCCCS)N[*:1])[*:2]].W.[dT]}$PEPTIDE1,PEPTIDE1,1:R1-9:R2$$$V2.0) , write its reported HDAC2 activity raw data (signal).
A. 5752
